Would you mind telling me the reported cytotoxicity at 10 µM of each entry?
protocol text: Toxicity liver stage against HepG2, at 10uM
Format: cell-based
Set-up: test concentration 10 uM, cell line HepG2-A16-CD81EGFP
condition details: human, HepG2-A16-CD81EGFP cells; read-out: INHIBITION
Numbers only, in %.

Here is how some molecules turned out for cytotoxicity at 10 µM.
[
  {
    "molecule": "NC1CCc2nc(-c3cccnc3)nc(Nc3ccc(F)cc3)c2C1 (centres undefined)",
    "readout number": -10.5
  },
  {
    "molecule": "CC(C)(O)c1cn(C2CCN(c3ncccc3Cl)CC2)nn1",
    "readout number": -46.4
  },
  {
    "molecule": "Cc1csc(N2CCCN(C(=O)CCNc3ncccn3)CC2)n1",
    "readout number": -10.5
  },
  {
    "molecule": "CCc1n[nH]c(C2CN(C(=O)c3ccc(NC4CC4)nc3)CCO2)n1 (centres undefined)",
    "readout number": 5.77
  }
]

Give cytotoxicity at 10 µM for each listed item.
1. Cc1c(C(=O)N2CCC(C(=O)c3nc4ccccc4s3)CC2)cnn1C
2. Cc1cccc(C(=O)N2C[C@@H]3CC[C@H]2CN(S(=O)(=O)N(C)C)C3)n1
3. Cc1nc(-c2c(C)noc2C)cc(C2CCN(CC(=O)N(C)C)CC2)n1
4. CCNc1nc(C(=O)N(C)Cc2nc(CC)no2)cs1

Output:
[6.32, 7.4, 5.84, -6.56]

---

Would you mind telling me the reported cytotoxicity at 10 µM of each entry?
protocol text: Toxicity liver stage against HepG2, at 10uM
Assay type: cell-based
Set-up: test concentration 10 uM, cell line HepG2-A16-CD81EGFP
condition details: human, HepG2-A16-CD81EGFP cells; read-out: INHIBITION
Answers are plain numbers, in %.

Here is how some compounds turned out for cytotoxicity at 10 µM.
[
  {
    "compound": "Cc1ncsc1CN1CC[C@H]2OCC[C@@]2(C(=O)NC(C)C)C1",
    "cytotoxicity at 10 µM, %": 9.38
  },
  {
    "compound": "COc1cccc(OC2CN(C(=O)c3ccoc3C)C2)c1",
    "cytotoxicity at 10 µM, %": 9.21
  },
  {
    "compound": "Cc1cnc(C(=O)N2CCN3C[C@H](OCc4cccnc4)C[C@H]3C2)cn1",
    "cytotoxicity at 10 µM, %": -59.7
  },
  {
    "compound": "CC(C)COC(=O)N1CC(=O)N(Cc2ccc(Cl)cc2)CC(O)C1 (stereo not drawn)",
    "cytotoxicity at 10 µM, %": -0.947
  }
]

Give cytotoxicity at 10 µM for each listed item.
1. Cc1ccc(C)c(NC(=O)c2cc(S(=O)(=O)N3CCSCC3)c[nH]2)c1
2. CCc1nc(-c2ccc(C(=O)N3CCC4(CC3)OCCO4)cc2)no1

Output:
-0.185
4.32

---

protocol text: Toxicity liver stage against HepG2, at 10uM
Assay type: cell-based
Set-up: test concentration 10 uM, cell line HepG2-A16-CD81EGFP
condition details: human, HepG2-A16-CD81EGFP cells; read-out: INHIBITION
measured metric: cytotoxicity at 10 µM (%)
Give bare numbers, in %.

Here is how some compounds turned out for cytotoxicity at 10 µM.
[
  {
    "compound": "Cc1nc(N2C[C@@H](CN3CCCCC3)[C@@H](CO)C2)c2sccc2n1",
    "cytotoxicity at 10 µM (%)": -5.12
  },
  {
    "compound": "CS(=O)(=O)NC[C@]12COC[C@H]1CN(C(=O)C1CCCCC1)C2",
    "cytotoxicity at 10 µM (%)": 3.34
  },
  {
    "compound": "CC(NCCN1CCC(N(C)C)CC1)c1ccc(F)cc1N(C)C (centres undefined)",
    "cytotoxicity at 10 µM (%)": -13
  },
  {
    "compound": "CN(CC(N)=O)Cc1csc(-c2ccc(F)cc2)n1",
    "cytotoxicity at 10 µM (%)": 2.5
  },
  {
    "compound": "Cc1ccc(CNC(=O)Nc2nccs2)cn1",
    "cytotoxicity at 10 µM (%)": -23.8
  }
]

Give cytotoxicity at 10 µM for each listed item.
1. Cc1nn(CN(CC2CCOC2)C2CC2)c(=O)c2ccccc12 (centres undefined)
2. CC(CNC(=O)c1cccnc1O)Cn1cccn1 (centres undefined)

Output:
[4.77, 0.144]
